From: patent US20110003898A1

Exercise: for every item that follows, state its recorded Pot life.
# assay.overview: Pot life (processing time) of adhesive with active ingredient
# Format: physicochemical
# condition.parameters: 0.45 g PEG 200, 0.55 g aspartate B, 2-5% active ingredient, 4 g prepolymer A; ^2 = active substance in suspension
Numbers only, in min.

CCN1CCN(c2cc3c(cc2F)c(=O)c(C(=O)O)cn3C2CC2)CC1    1
[H]/N=C(\N/C(=N/[H])NCCCCCCNC(=N)NC(=N)Nc1ccc(Cl)cc1)Nc1ccc(Cl)cc1    0.5
OC(Cn1cncn1)(Cn1cncn1)c1ccc(F)cc1F    3

Prompt line: Report Pot life for Cc1ncc([N+](=O)[O-])n1CCO
Response line: 2

====

# assay.overview: Film formation on the skin, cure time to disappearance of surface tackiness
# Assay type: physicochemical
# condition.parameters: adhesive with 2-5% active ingredient; ^2 = suspension
// 0.0 strictly below 5 min in Film formation cure time [min to disappearance of surface tackiness]; 1.0 otherwise

CCCCN1CCCCC1C(=O)Nc1c(C)cccc1C (centres unmarked)    1.0
COc1ccc2c(c1)c(CC(=O)OCC(=O)O)c(C)n2C(=O)c1ccc(Cl)cc1    1.0

Prompt line: Quick check, Film formation cure time [min to disappearance of surface tackiness] >= 5 min? [H]/N=C(\N/C(=N/[H])NCCCCCCNC(=N)NC(=N)Nc1ccc(Cl)cc1)Nc1ccc(Cl)cc1
Response line: 0.0

Prompt line: Quick check, Film formation cure time [min to disappearance of surface tackiness] >= 5 min? CCCCNc1ccc(C(=O)OCCN(C)C)cc1
Response line: 1.0

Prompt line: Quick check, Film formation cure time [min to disappearance of surface tackiness] >= 5 min? CCN1CCN(c2cc3c(cc2F)c(=O)c(C(=O)O)cn3C2CC2)CC1
Response line: 0.0

Prompt line: Quick check, Film formation cure time [min to disappearance of surface tackiness] >= 5 min? O=C1OC(CN2CCOCC2)CN1/N=C/c1ccc([N+](=O)[O-])o1 (centres unmarked)
Response line: 0.0

Prompt line: Quick check, Film formation cure time [min to disappearance of surface tackiness] >= 5 min? CC(=O)Oc1ccccc1C(=O)O
Response line: 0.0

Prompt line: Quick check, Film formation cure time [min to disappearance of surface tackiness] >= 5 min? CCN(CC)CC(=O)Nc1c(C)cccc1C
Response line: 0.0

Prompt line: Quick check, Film formation cure time [min to disappearance of surface tackiness] >= 5 min? OC(Cn1cncn1)(Cn1cncn1)c1ccc(F)cc1F
Response line: 1.0

Prompt line: Quick check, Film formation cure time [min to disappearance of surface tackiness] >= 5 min? COc1cccc(C2(O)CCCCC2CN(C)C)c1 (centres unmarked)
Response line: 0.0

Prompt line: Quick check, Film formation cure time [min to disappearance of surface tackiness] >= 5 min? CCOC(=O)c1ccc(N)cc1
Response line: 1.0

Prompt line: Quick check, Film formation cure time [min to disappearance of surface tackiness] >= 5 min? CC(C)Cc1ccc(C(C)C(=O)O)cc1 (centres unmarked)
Response line: 1.0

====

# assay.overview: Film formation on the skin, cure time to disappearance of surface tackiness
# Type: physicochemical
# condition.parameters: adhesive with 2-5% active ingredient; ^2 = suspension
Exercise: for every item that follows, state its recorded Film formation cure time [min to disappearance of surface tackiness].
Answers are plain numbers, in min.

Use the examples below as a reference point.
CC(=O)NS(=O)(=O)c1ccc(N)cc1 [sulfacetamide]    5
Oc1cc(Cl)ccc1Oc1ccc(Cl)cc1Cl [triclosan (Irgasan)]    5

Please state, for each entry, its recorded Film formation cure time [min to disappearance of surface tackiness].
1. CC[C@H]1OC(=O)[C@H](C)[C@@H](O[C@H]2C[C@@](C)(OC)[C@@H](O)[C@H](C)O2)[C@H](C)[C@@H](O[C@@H]2O[C@H](C)C[C@H](N(C)C)[C@H]2O)[C@](C)(O)C[C@@H](C)C(=O)[C@H](C)[C@@H](O)[C@]1(C)O [erythromycin]
2. CC(=O)Nc1ccc(O)cc1 [paracetamol]

Response line:
[6, 7]
